Source listed as ChEMBL document CHEMBL4049429.

Measured inhibition of individual entries
# SYSTEM NAME: UniProtKB P29274
# Sequence (P29274 whole entry): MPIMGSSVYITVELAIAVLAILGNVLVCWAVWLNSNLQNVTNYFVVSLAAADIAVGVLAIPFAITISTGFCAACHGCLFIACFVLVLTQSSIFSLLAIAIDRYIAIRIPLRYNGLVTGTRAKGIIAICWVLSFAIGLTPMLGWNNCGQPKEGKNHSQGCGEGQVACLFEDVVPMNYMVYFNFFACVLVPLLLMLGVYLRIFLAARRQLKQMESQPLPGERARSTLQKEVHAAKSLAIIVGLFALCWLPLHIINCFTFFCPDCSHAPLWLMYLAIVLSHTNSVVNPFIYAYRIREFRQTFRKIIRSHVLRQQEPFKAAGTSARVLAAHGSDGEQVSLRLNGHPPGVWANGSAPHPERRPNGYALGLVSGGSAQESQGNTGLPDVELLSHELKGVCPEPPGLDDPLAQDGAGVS
# ASSAY NAME: Displacement of [3H]4-(2-[7-amino-2-(2-furyl)[1,2,4]triazolo[2,3-a][1,3,5]triazin-5-ylamino]ethyl)phenol from human adenosine A2A receptor expressed in human Hela cell membranes at 1 uM after 30 mins
ENDPOINT NAME: inhibition (%)

CCOC(=O)C1=C(C)NC(=O)NC1C1CCCC1 (stereo not given) ... 1
CC1=C(C(=O)OC(C)C)C(c2ccco2)N/C(=N/C#N)N1 (racemic) ... 19
CCOC(=O)C1=C(C)N/C(=N\C#N)NC1c1ccccc1 (racemic) ... 13
CC1=C(C(=O)OC(C)C)[C@H](c2ccco2)N/C(=N/C#N)N1 ... 10
CC1=C(C(=O)OC(C)C)C(C2CCCC2)N/C(=N/C#N)N1 (racemic) ... 5
